Listing: Kd of selected binders
Target: human FGFR2b extracellular domain (human, UniProt P21802)
Sequence (P21802 22-377): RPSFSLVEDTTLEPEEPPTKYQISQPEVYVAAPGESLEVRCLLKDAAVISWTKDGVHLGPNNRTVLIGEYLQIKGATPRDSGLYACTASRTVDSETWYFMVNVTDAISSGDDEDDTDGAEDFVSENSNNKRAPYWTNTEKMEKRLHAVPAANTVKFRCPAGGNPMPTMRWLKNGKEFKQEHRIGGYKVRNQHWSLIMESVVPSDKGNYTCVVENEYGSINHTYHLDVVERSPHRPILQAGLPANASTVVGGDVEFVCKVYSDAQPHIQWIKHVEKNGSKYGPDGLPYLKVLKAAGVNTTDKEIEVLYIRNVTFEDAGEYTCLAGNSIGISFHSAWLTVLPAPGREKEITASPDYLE
Test: BLI
Enter your answer as a number in nM; do not include the unit.

{"columns": ["Binder", "Kd [nM]"],
 "data": [
  ["3D6 (antibody, V domains shown) VH: QVQLQQSGAELVKPGASVKMSCKASGYTFRYYNMHWVKRTPGQGLEWIGLIYPDNGDTSYNQKFKGKATLTADTSSSTAYMQLSSLTSEDSAVYYCARGGLDYWGQGTSLTVSS VL: DIQMTQSPASLSVSVGETVTITCRASENIYSNLAWYQQKQGKSPQLLVYNAKTLADGVPSRFSGSGSGTQYSLKINSLQPEDFGSYYCQHFWSTPFTFGSGTKLELK", 15]
]}

// next item, Kd requested
Please supply the value of reported Kd for the item 3E1 (antibody, V domains shown) VH: QVQLQQPGAEVVKPGASVKMSCKASGYTFTDYYIHWVKQTPGQGLEWIGAIYPDNGDTSYNQKFKVKATLTADKSSSTAYMQLSSLTSEDSAVYYCARAFTYWGQGTLVTVSA VL: DILITQSPASLSASVGETVTITCGASENIYGALNWYQRKQGKSPQLLIYGATNLADGMSSRFSGSGSGRQYSLKISSLHPDDVATYYCQNVLSTPYTFGGGTKLEIK
4.5
